Activity values, listed per item
- Target entity: Bombesin receptor subtype-3 (Homo sapiens) (UniProt P32247)
- Assay summary: Agonist activity at human BRS-3 expressed in HEK293AEQ cells assessed as bioluminescence for 10 mins by aequorin bioluminescence assay relative to dY-peptide
- Assay type: functional, cell-based
Your answer should be a plain number; it is taken to be in %.

[
  {
    "Smiles structure": "CC(C)(C)c1ccc(S(=O)(=O)N2Cc3ccc(C(F)(F)F)nc3Nc3cccc(-c4noc(C(C)(C)O)n4)c32)cc1",
    "Unit spec": "%",
    "Activity": 106
  },
  {
    "Smiles structure": "CC(C)(C)c1ccc(S(=O)(=O)N2Cc3ccc(C(F)(F)F)nc3Nc3cccc(C4CCNCC4)c32)cc1",
    "Unit spec": "%",
    "Activity": 101
  },
  {
    "Smiles structure": "C[C@@H](O)c1nc(-c2cccc3c2N(S(=O)(=O)c2ccc(C(C)(C)C)cc2)Cc2ccc(C(F)(F)F)nc2N3)no1",
    "Unit spec": "%",
    "Activity": 107
  }
]

Bombesin receptor subtype-3 (Homo sapiens) (UniProt P32247) / Activity / "C[C@H](O)c1nc(-c2cccc3c2N(S(=O)(=O)c2ccc(C(C)(C)C)cc2)Cc2ccc(C(F)(F)F)nc2N3)no1" : value?
102

###

- Target entity: Bombesin receptor subtype-3 (Homo sapiens, UniProt P32247)
- Sequence (P32247 whole entry): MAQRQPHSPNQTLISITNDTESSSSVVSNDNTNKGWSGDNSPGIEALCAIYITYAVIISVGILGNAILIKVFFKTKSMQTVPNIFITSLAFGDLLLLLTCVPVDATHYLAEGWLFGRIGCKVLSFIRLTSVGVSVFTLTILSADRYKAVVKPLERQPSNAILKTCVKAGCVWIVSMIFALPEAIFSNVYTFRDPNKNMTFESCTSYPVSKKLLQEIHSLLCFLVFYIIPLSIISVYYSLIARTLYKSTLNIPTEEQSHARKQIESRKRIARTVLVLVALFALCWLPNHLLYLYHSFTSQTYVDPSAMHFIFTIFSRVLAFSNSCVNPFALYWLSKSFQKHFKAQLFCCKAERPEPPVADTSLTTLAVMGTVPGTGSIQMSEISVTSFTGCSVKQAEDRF
- Assay summary: Displacement of [125I]-dY-peptide from human BRS-3 expressed in NFAT-CHO cells after 2 hrs by liquid scintillation counting
- Format: cell-based
IC50 values, listed per item

[
  {
    "Smiles structure": "Cn1cc(-c2cccc3c2N(S(=O)(=O)c2ccc(C(C)(C)C)cc2)Cc2ccc(C(F)(F)F)nc2N3)cn1",
    "Target entity": "Bombesin receptor subtype-3 (Homo sapiens, UniProt P32247)",
    "Endpoint value": "0.76 nM"
  },
  {
    "Smiles structure": "CC(C)(C)c1ccc(S(=O)(=O)N2Cc3ccc(C(F)(F)F)nc3Nc3cccc(-c4noc(=O)[nH]4)c32)cc1",
    "Target entity": "Bombesin receptor subtype-3 (Homo sapiens, UniProt P32247)",
    "Endpoint value": "29 nM"
  },
  {
    "Smiles structure": "CC(C)(O)c1nc(-c2cccc3c2N(S(=O)(=O)c2ccc(C(F)(F)F)cc2)Cc2ccc(C(F)(F)F)nc2N3)no1",
    "Target entity": "Bombesin receptor subtype-3 (Homo sapiens, UniProt P32247)",
    "Endpoint value": "8.3 nM"
  }
]

Which value of IC50 has been reported for "CC(C)(C)c1ccc(S(=O)(=O)N2Cc3ccc(C(F)(F)F)nc3Nc3cccc(-c4noc(C(C)(C)O)n4)c32)cc1" in the records?
0.9 nM

Values from ChEMBL document CHEMBL2163341
